# assayed.system: T1, 4H780-bH
# T1 chain: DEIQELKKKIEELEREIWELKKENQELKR
# assay.method.text: two-hybrid library CCNG1;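 further: natural log of median RNA to DNA barcode read ratio; higher means stronger binding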
endpoint.label: interaction score
# answer = number (no unit)

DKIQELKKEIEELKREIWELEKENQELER [4H2627-bH] ... -0.424
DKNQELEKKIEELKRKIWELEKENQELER [4H3427-bH] ... 0.188
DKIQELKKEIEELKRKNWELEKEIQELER [4H2673-bH] ... -0.56

Proceeding to the next binder to report its interaction score.
Entry under test: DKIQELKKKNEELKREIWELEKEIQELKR [4H3010-bH] . Its interaction score was -0.427
